assay: Fluorescence lifetime; type: physicochemical; details: A: degassed methanol, [probe] = 5 μM
endpoint.name: λem1 (emission wavelength of decay) (nm)
Write it as a number; the unit nm goes unstated.

Oc1ccc(/C=C/c2ccccc2)cc1O [Compound 2, (E)-4-Styrylbenzene-1,2-diol]	395
Oc1ccc(/C=C/c2ccc3ccccc3c2)cc1O [Compound 3]	415
Oc1ccc(/C=C/c2cc3ccc4cccc5ccc(c2)c3c45)cc1O [Compound 5]	425

Now look at this one.
Give λem1 (emission wavelength of decay) for the following compound: Oc1ccc(/C=C/c2ccc3cc4ccccc4cc3c2)cc1O [Compound 4]
475

* * *

target: Aβ1-42 fibrils (Homo sapiens, UniProt P05067); experiment: Fluorescence emission of probe bound to Aβ1-42 fibrils; type: binding; settings: 5 μM fibrils (monomer basis) + 1 μM probe; PBS buffer pH 7.5; versus free probe
Sequence (P05067 672-713): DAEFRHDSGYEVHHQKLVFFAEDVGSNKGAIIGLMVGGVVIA
Below, each entry is listed with its recorded Int: fold increase in fluorescence intensity upon binding to Aβ1-42 fibrils.
Report as a plain number; the unit fold is understood.

Here is how some molecules turned out for Int: fold increase in fluorescence intensity upon binding to Aβ1-42 fibrils.
Oc1ccc(/C=C/c2ccccc2)cc1O [Compound 2, (E)-4-Styrylbenzene-1,2-diol]	2.6
Oc1ccc(/C=C/c2ccc3cc4ccccc4cc3c2)cc1O [Compound 4]	10.3
Oc1ccc(/C=C/c2ccc3ccccc3c2)cc1O [Compound 3]	6.9

Please give the documented Int: fold increase in fluorescence intensity upon binding to Aβ1-42 fibrils of Oc1ccc(/C=C/c2cc3ccc4cccc5ccc(c2)c3c45)cc1O [Compound 5]
11.1

* * *

Here, each record is paired with measured τavg (average fluorescence lifetime) data.
test: Fluorescence lifetime; assay type: physicochemical; settings: A: degassed methanol, [probe] = 5 μM
Numeric only. Scale: ns

Example results:
Oc1ccc(/C=C/c2ccc3ccccc3c2)cc1O [Compound 3]	0.52
Oc1ccc(/C=C/c2cc3ccc4cccc5ccc(c2)c3c45)cc1O [Compound 5]	19.11

Complete the entry with τavg (average fluorescence lifetime) for Oc1ccc(/C=C/c2ccc3cc4ccccc4cc3c2)cc1O [Compound 4]
4.23

* * *

target: Aβ1-42 fibrils (Homo sapiens, UniProt P05067); test: Fluorescence lifetime; details: B: bound to Aβ1-42 fibrils in PBS buffer
# α1 (normalized pre-exponential factor) values compiled below
// keep it numeric: no unit symbol after the value

Consider the following illustrative entries.
Oc1ccc(/C=C/c2ccc3cc4ccccc4cc3c2)cc1O	0.38
Oc1ccc(/C=C/c2cc3ccc4cccc5ccc(c2)c3c45)cc1O	0.11
Oc1ccc(/C=C/c2ccc3ccccc3c2)cc1O	0.54

Turning now to a further record.
For the compound Oc1ccc(/C=C/c2ccccc2)cc1O [Compound 2, (E)-4-Styrylbenzene-1,2-diol] , give its reported α1 (normalized pre-exponential factor).
0.86

* * *

target: insulin fibrils (Bos taurus, UniProt P01317); test: Fluorescence emission of probe bound to insulin fibrils; type: binding, Bovine; details: 5 μM fibrils (monomer basis) + 1 μM probe; pH 3.0; versus free probe
Sequence (P01317 25-54 limits assumed): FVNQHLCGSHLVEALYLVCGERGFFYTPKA
Sequence (P01317 85-105 limits assumed): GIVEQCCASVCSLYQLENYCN
Each entry below lists one item and its recorded Int: fold increase in fluorescence intensity upon binding to insulin fibrils value.
Remember to put the unit after the number in your answer.

Oc1ccc(/C=C/c2ccccc2)cc1O [Compound 2, (E)-4-Styrylbenzene-1,2-diol]	7.5 fold
Oc1ccc(/C=C/c2cc3ccc4cccc5ccc(c2)c3c45)cc1O [Compound 5]	23.2 fold
Oc1ccc(/C=C/c2ccc3ccccc3c2)cc1O [Compound 3]	13.7 fold

Using known records, supply Int: fold increase in fluorescence intensity upon binding to insulin fibrils for Oc1ccc(/C=C/c2ccc3cc4ccccc4cc3c2)cc1O [Compound 4]
91.4 fold
